B1: library; numbered along this chain (parent)
chain: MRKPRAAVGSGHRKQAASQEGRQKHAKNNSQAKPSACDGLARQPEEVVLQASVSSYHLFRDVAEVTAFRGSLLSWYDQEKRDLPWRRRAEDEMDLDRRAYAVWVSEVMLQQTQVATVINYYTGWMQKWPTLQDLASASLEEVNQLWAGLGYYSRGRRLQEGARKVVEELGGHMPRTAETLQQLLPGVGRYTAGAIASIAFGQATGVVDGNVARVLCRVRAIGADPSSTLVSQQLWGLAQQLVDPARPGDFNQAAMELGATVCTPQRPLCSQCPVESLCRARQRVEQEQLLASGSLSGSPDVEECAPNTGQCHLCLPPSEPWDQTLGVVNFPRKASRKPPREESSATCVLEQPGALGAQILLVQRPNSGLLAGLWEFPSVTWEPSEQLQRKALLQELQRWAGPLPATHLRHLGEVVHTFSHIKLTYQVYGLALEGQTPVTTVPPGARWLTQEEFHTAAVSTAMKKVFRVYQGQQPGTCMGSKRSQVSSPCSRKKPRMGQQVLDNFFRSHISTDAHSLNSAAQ

# Variants of: B1
# Method: 8OG:A repair function score (normalized; synonymous = 0, nonsense = -1) (normalized log-likelihood score); higher = more repair activity (WT-like);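 further: cells sorted at 72 h after reporter transfection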
# Measurement Setup: with 8OG:A DNA repair reporter (GFP) in HEK-293 MUTYH KO cells
Mark Y for reported 8OG:A repair function score of -0.09 or greater; mark N for anything smaller.

Please review the following examples before continuing.
mutant_label=L349V discrete_label=Y
mutant_label=V117P discrete_label=N
mutant_label=Q271I discrete_label=Y

In plain terms: is recorded 8OG:A repair function score at least -0.09 for V274I ?
Y

In plain terms: is recorded 8OG:A repair function score at least -0.09 for Q470M ?
Y

In plain terms: is recorded 8OG:A repair function score at least -0.09 for T260H ?
N

In plain terms: is recorded 8OG:A repair function score at least -0.09 for K390Q ?
Y

In plain terms: is recorded 8OG:A repair function score at least -0.09 for P129I ?
N

In plain terms: is recorded 8OG:A repair function score at least -0.09 for P377N ?
N

All values here come from the supplement of paper PMC11908140.
